Entries and their measured IC50 follow.
assay-comment: Antagonist activity at CXCR3 assessed as ITAC-mediated migration of human PBMC in presence of 100% human plasma
attribute-measured: IC50 (nM)

smiles_string=CCS(=O)(=O)CCN(C(=O)Cc1ccc(F)c(C(F)(F)F)c1)[C@H](C)c1nc2ncccc2cc1-c1ccc(C#N)cc1 attribute_measured=IC50 recorded_number=48
smiles_string=CCS(=O)(=O)CCN(C(=O)Cc1ccc(F)c(C(F)(F)F)c1)[C@H](C)c1nc2ccccc2n1-c1ccc(C#N)cc1 attribute_measured=IC50 recorded_number=521
smiles_string=CCS(=O)(=O)CCN(C(=O)Cc1ccc(F)c(C(F)(F)F)c1)[C@H](C)c1nc2ccccn2c1-c1ccc(C#N)cc1 attribute_measured=IC50 recorded_number=72
smiles_string=CCS(=O)(=O)CCN(C(=O)Cc1ccc(F)c(C(F)(F)F)c1)[C@H](C)c1nc2ccccc2cc1-c1ccc(C#N)cc1 attribute_measured=IC50 recorded_number=72
smiles_string=CCS(=O)(=O)CCN(C(=O)Cc1ccc(F)c(C(F)(F)F)c1)[C@H](C)c1nc2c(c(=O)n1-c1ccc(C#N)cc1)CCCN2C attribute_measured=IC50 recorded_number=88
